# Test system: CCRF-CEM leukemia
# PROCEDURE DETAILS: NCI tumour cell line growth inhibition, 48 h

{"MOL SMILES": "C=C(C)[C@H]1Cc2c(ccc3c2O[C@@H]2COc4cc(OC)c(OC)cc4[C@@H]2C3=O)O1", "EXPERIMENTAL TARGET": "CCRF-CEM leukemia", "TGI": "71.1 µM"}
{"MOL SMILES": "CCO/C=N\\C1=C(C#N)SC2=N/C(=C\\c3ccc(OC)cc3)C(=O)N21", "EXPERIMENTAL TARGET": "CCRF-CEM leukemia", "TGI": "> 100 µM"}
{"MOL SMILES": "c1ccc(CNc2nncc3[nH]cnc23)cc1", "EXPERIMENTAL TARGET": "CCRF-CEM leukemia", "TGI": "> 100 µM"}
{"MOL SMILES": "CC(C)=C[C@H]1CCC2(OCCO2)[C@]1(C)CO", "EXPERIMENTAL TARGET": "CCRF-CEM leukemia", "TGI": "> 100 µM"}

---

# Test system: SNB-19 CNS
# PROCEDURE DETAILS: NCI tumour cell line growth inhibition, 48 h
Label rule, in plain words: TGI of 30 µM and up is fulfilled, under 30 µM is not fulfilled.

{"MOLECULE": "CC(C)c1c(O)c(O)c2c(c1O)C(=O)C(O)=C1C(C)(C)CCC[C@@]12C", "CLASS LABEL": "not fulfilled"}
{"MOLECULE": "CN(C)CCC1(C2=CCCC2)CC/C(=C\\c2ccc(Cl)cc2)C1=O (stereo not given)", "CLASS LABEL": "not fulfilled"}
{"MOLECULE": "Cc1ccc2c3c1O[C@H]1c4[nH]c5ccccc5c4C[C@@]4(O)[C@@H](C2)N(CC2CC2)CC[C@]314", "CLASS LABEL": "fulfilled"}
{"MOLECULE": "O=C1/C(=C(/c2ccccc2)N2CCOCC2)Cc2ccccc21", "CLASS LABEL": "not fulfilled"}
{"MOLECULE": "O=C(N/N=C\\C=C\\c1ccc([N+](=O)[O-])o1)C(=O)N/N=C\\C=C\\c1ccc([N+](=O)[O-])o1", "CLASS LABEL": "fulfilled"}
{"MOLECULE": "COc1ccc(C2=C(Cl)c3cc(OC)c(OC)cc3C2Cl)cc1 (stereo not given)", "CLASS LABEL": "fulfilled"}
{"MOLECULE": "NC(=O)c1cc(Cl)ccc1NC(=O)/C=C/c1ccccc1", "CLASS LABEL": "fulfilled"}
{"MOLECULE": "CC(=O)OC1C(Oc2c(C)cc3c(c2O)[C@@H](C)CC[C@@H]3[C@@H](C)CCC=C(C)C)OCC(O)C1O (stereo not given in full)", "CLASS LABEL": "fulfilled"}
{"MOLECULE": "C/C(=N/NC(N)=S)c1ccc[nH]1", "CLASS LABEL": "fulfilled"}
{"MOLECULE": "O=C(Nc1cc(Cl)c(Cl)cc1Cl)C(=O)C1C(=O)NC(=S)NC1=O", "CLASS LABEL": "fulfilled"}

---

Recorded TGI values for a group of molecules are listed next.
# Tested on: A549 NSCLC
# PROCEDURE DETAILS: NCI tumour cell line growth inhibition, 48 h

{"MOLECULE": "CN1CCc2nc(N)nc(-c3nc(N)nc4c3CN(C)CC4)c2C1", "RELATION OPERATOR": ">", "TGI / µM": 100}
{"MOLECULE": "COc1ccc(-c2cc(-c3cc(C)cc(Br)c3O)no2)cc1", "RELATION OPERATOR": "=", "TGI / µM": 57}
{"MOLECULE": "CCOC(=O)c1cc2c3ccn(Cc4ccccc4)c3c3c(C)[nH]oc3c2n1", "RELATION OPERATOR": ">", "TGI / µM": 100}
{"MOLECULE": "CC1=CC(=O)C=CC1=O", "RELATION OPERATOR": "=", "TGI / µM": 66.8}
{"MOLECULE": "COc1ccc(C(=O)c2cc(C)c(OC)c(C)c2)c(OC)c1O", "RELATION OPERATOR": ">", "TGI / µM": 100}
{"MOLECULE": "C1=Cc2cc3c(c4nccc(c24)N1)OCO3", "RELATION OPERATOR": ">", "TGI / µM": 41.7}
{"MOLECULE": "CC(=O)[C@@H](C)C(=O)N1C(=O)OC[C@@]12[C@@H]1CC[C@@H](C1)C2(C)C", "RELATION OPERATOR": ">", "TGI / µM": 100}
{"MOLECULE": "OCC1OC(n2cnc3c2NC=NC[C@H]3O)C(Cl)C1O (some centres not stated)", "RELATION OPERATOR": ">", "TGI / µM": 100}
{"MOLECULE": "O=C1c2ccsc2C(=O)c2sc(CO)cc21", "RELATION OPERATOR": "=", "TGI / µM": 0.125}
{"MOLECULE": "CCN(CC)C1CC(O[C@H]2C[C@](O)(C(=O)CO)Cc3c(O)c4c(c(O)c32)C(=O)c2c(OC)cccc2C4=O)OC(C)C1O (some centres not stated)", "RELATION OPERATOR": "=", "TGI / µM": 0.394}
{"MOLECULE": "O=C(CCc1nc(=S)[nH][nH]1)Nc1ccccc1Cl", "RELATION OPERATOR": ">", "TGI / µM": 100}
{"MOLECULE": "CCCCC(CC)COC(=O)C[N+](C)(C)CCOC(c1ccccc1)c1ccccc1 (configuration not stated)", "RELATION OPERATOR": "=", "TGI / µM": 38.9}
{"MOLECULE": "CCOC(=O)CC(C)C1(C(=O)OCC)CCCCC1=O (configuration not stated)", "RELATION OPERATOR": ">", "TGI / µM": 100}
{"MOLECULE": "O=C(/C=C/c1ccc(Cl)c(Cl)c1)c1ccc2ccccc2c1", "RELATION OPERATOR": ">", "TGI / µM": 100}
{"MOLECULE": "CCOC(=O)C1C(=O)CC1(C)C (configuration not stated)", "RELATION OPERATOR": ">", "TGI / µM": 10}
{"MOLECULE": "CN1CCN(CCCNc2nc3ccc(Oc4ccc(NC(=O)Nc5cc(C(F)(F)F)ccc5F)cc4)cc3[nH]2)CC1", "RELATION OPERATOR": "=", "TGI / µM": 8.08}
{"MOLECULE": "CCCC(CCC)NCC(O)c1cc(-c2ccc(C(F)(F)F)cc2)nc(C(F)(F)F)c1 (configuration not stated)", "RELATION OPERATOR": "=", "TGI / µM": 3.28}

---

# Test system: SN12C renal
# PROCEDURE DETAILS: NCI tumour cell line growth inhibition, 48 h; in the data active = GI50 below about 0.43 µM; inactive = the rest
Outcomes: t = active, f = inactive

{"MOLECULE": "COCC[C@H]1CCC/C=C/[C@@H]2C[C@H](O)C[C@H]2[C@H](O)/C=C/C(=O)O1", "CLASS LABEL": "t"}
{"MOLECULE": "CCCC(CCC)NCC(O)c1cc(-c2ccc(C(F)(F)F)cc2)nc(C(F)(F)F)c1 (configuration not stated)", "CLASS LABEL": "f"}
{"MOLECULE": "COc1cc2oc(-c3ccc(O)cc3)c(OC)c(=O)c2c(O)c1OC", "CLASS LABEL": "f"}
{"MOLECULE": "COc1ccc(-c2[nH]c3ccc(OC)cc3c2/C=C(\\C#N)S(=O)(=O)c2ccccc2)cc1", "CLASS LABEL": "f"}
{"MOLECULE": "c1ccc(Sc2ccc(Cc3nc4cc5ccccc5cc4[nH]3)cc2)cc1", "CLASS LABEL": "f"}
{"MOLECULE": "O=C(Nc1n[nH]c2cc(-c3ccccc3)ccc12)C1CC1", "CLASS LABEL": "f"}
{"MOLECULE": "Cc1ccc(NC(=O)c2cccc(C(C)(C)C#N)c2)cc1Nc1ccc2ncn(C)c(=O)c2c1", "CLASS LABEL": "f"}
{"MOLECULE": "CCOC(=O)C1CCN(S(=O)(=O)/N=C2/NC(=O)NC2=C(Cl)Cl)CC1", "CLASS LABEL": "f"}
{"MOLECULE": "CC1(C)C(=O)/C(=C\\c2cccnc2)C[C@]2(C)[C@H]3CC[C@@H]4[C@H]5[C@H](C(=O)/C=C/c6cccnc6)CC[C@]5(C(=O)O)CC[C@@]4(C)[C@]3(C)CC[C@@H]12", "CLASS LABEL": "f"}
{"MOLECULE": "COc1cc2c3c(n(CCCN)c(=O)c2cc1OC)-c1ccc(C#N)cc1C3=O", "CLASS LABEL": "f"}
{"MOLECULE": "COc1cc2ncnc(-n3ncc4cc(NC(=O)Nc5ccccc5)ccc43)c2cc1OC", "CLASS LABEL": "f"}
{"MOLECULE": "CC/C=C\\C[C@H](O)C/C=C1/C(=O)C=C[C@@H]1C/C=C\\CCCC(=O)OC", "CLASS LABEL": "f"}
{"MOLECULE": "CN1CCN(CCCNc2nc3ccc(Oc4ccc(NC(=O)Nc5cc(C(F)(F)F)ccc5F)cc4)cc3[nH]2)CC1", "CLASS LABEL": "f"}
{"MOLECULE": "CCNCCNc1cc(-c2ccc(C(F)(F)F)cc2)c(C#N)c2nc3ccccc3n12", "CLASS LABEL": "f"}
{"MOLECULE": "COc1ccc(C(=O)c2cc(OC)c(OC)c(OC)c2)cc1/C=C/C(=O)c1ccc(F)cc1", "CLASS LABEL": "f"}
{"MOLECULE": "S=c1ssc(N2CCOCC2)c1Cl", "CLASS LABEL": "f"}
{"MOLECULE": "C/C(=N\\Nc1ccc(Cl)cn1)c1ccc2ccccc2n1", "CLASS LABEL": "f"}
